Test system: TK-10 renal
Assay Text: NCI-60 one-dose screen, 48 h (100 = growth as untreated, 0 = no growth, -100 = all killed)
Test Parameters: 10 µM unless noted
Procedure: Growth inhibition of the TK-10 human tumor cell line is measured as a screen for anti-cancer activity. Cells are grown in 96 well plates and exposed to the test compound for 48 hours. Compounds are tested at a single concentration, which is 10^-5 M for most compounds. The reported endpoint is percent growth (GI% or GIPRCNT), where numbers from 0 - 100% represent growth inhibition, and numbers from -100% - 0 represent cell death. For example, a value of 40 represents 60% growth inhibition. […]
The panel holds about 83,000 compounds, 20% with a hit somewhere; the sample as a whole holds those more often.
Readout: growth (%)
Answers are plain numbers, in %.

Sample answers from the record:
>  <Molecule>
S=C(Nc1ccc(-c2nc(N3CCOCC3)c3cccn3n2)cc1)Nc1cccnc1

>  <growth [%]>
21.4

$$$$
>  <Molecule>
COc1ccc(/C=C2\COc3ccc(O)cc3C2=O)c(OC)c1OC

>  <growth [%]>
109

$$$$
>  <Molecule>
CCCCCCNC(=O)Oc1ccc(/C(=C(/C)Cc2ccc(OC)cc2)c2ccc(OCCCN(C)C)cc2)cc1

>  <growth [%]>
51.3

$$$$

Below is a list of molecules. For each, state its recorded growth.
1. CCn1cc(C(=O)N/N=C/c2cccs2)c(=O)c2cc(F)c(N3CCNC(C)C3)c(F)c21 (centres undefined)
2. Cc1cc(=O)[nH]c2c(C#N)cnn12

Data returned:
[83.9, 101]

The measured values listed here are drawn from PubChem BioAssay (NCI).
